Source of measurements: patent US20220332700A1

- Target Entity: recombinant ASK1 (Homo sapiens, UniProt Q99683)
- Construct: purchased Carna Biosciences
- Sequence (Q99683 654-971 limits assumed): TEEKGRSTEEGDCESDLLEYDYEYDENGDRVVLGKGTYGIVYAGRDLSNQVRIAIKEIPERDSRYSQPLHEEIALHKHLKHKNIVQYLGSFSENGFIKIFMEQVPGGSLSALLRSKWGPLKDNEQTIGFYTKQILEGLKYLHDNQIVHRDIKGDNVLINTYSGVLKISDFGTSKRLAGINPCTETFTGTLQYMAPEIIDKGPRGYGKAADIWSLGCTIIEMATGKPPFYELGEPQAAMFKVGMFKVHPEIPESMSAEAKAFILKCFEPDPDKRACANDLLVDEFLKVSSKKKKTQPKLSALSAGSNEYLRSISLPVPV
- Experimental Protocol: ASK1 Biochemical Assay (HTRF KinEASE-STK S3)
- Condition Description: ATP 100 μM; read-out: Biochemical Assay IC50
pIC50: −log10 of the molar value.
Below: a set of entries, each annotated with reported pIC50.

Examples with their reported pIC50 follow.
INSERT INTO measurements (compound, result_value) VALUES
  ('CC(C)n1cnnc1-c1cccc(N2CCN(c3ccc(NC(C#N)C4CC4)cc3)C2=O)n1 (centres unmarked)', '< 7.00'),
  ('CC(C)n1cnnc1-c1cccc(N2CCN(c3ccc(C(=O)C4CC4)cc3)C2=O)n1', '> 7.00');

query: Kindly state the measured pIC50 obtained for `CC(C)n1cnnc1-c1cccc(N2CCN(S(C)(=O)=O)C2=O)n1` with recombinant ASK1 (Homo sapiens, UniProt Q99683).
result: < 6.00

query: What value of pIC50 on recombinant ASK1 (Homo sapiens, UniProt Q99683) does `CC(C)n1cnnc1-c1cccc(N2CCN(c3ccc(N4CC(O)C4)cc3)C2=O)n1` have?
result: > 7.00

query: // lookup pIC50 | system=recombinant ASK1 (Homo sapiens, UniProt Q99683) | key= `CC(C)n1cnnc1-c1cccc(N2CCN(c3ccc(N4CC(C(N)=O)C4)nc3)C2=O)n1`
result: > 7.00

query: Param readout = pIC50; param system = recombinant ASK1 (Homo sapiens, UniProt Q99683); param query = `CC(C)n1cnnc1-c1cccc(N2CCN(c3ccc(N4CCC(O)CC4)cc3)C2=O)n1` ; response: value
result: > 7.00

query: Please state recorded pIC50 (tested on recombinant ASK1 (Homo sapiens, UniProt Q99683)) of CC(CC#N)n1cnnc1-c1cccc(N2CCN(c3ccc(S(C)(=O)=O)cc3)C2=O)n1 (centres unmarked)
result: > 7.00

query: What measured pIC50 is associated with `CC(C)n1cnnc1-c1cccc(N2CCN(c3ccc(C(F)(F)F)cc3)C2=O)n1` on recombinant ASK1 (Homo sapiens, UniProt Q99683)?
result: < 7.00

====

- Target Entity: ASK2 (Homo sapiens, UniProt O95382)
- Sequence (O95382 1-1288): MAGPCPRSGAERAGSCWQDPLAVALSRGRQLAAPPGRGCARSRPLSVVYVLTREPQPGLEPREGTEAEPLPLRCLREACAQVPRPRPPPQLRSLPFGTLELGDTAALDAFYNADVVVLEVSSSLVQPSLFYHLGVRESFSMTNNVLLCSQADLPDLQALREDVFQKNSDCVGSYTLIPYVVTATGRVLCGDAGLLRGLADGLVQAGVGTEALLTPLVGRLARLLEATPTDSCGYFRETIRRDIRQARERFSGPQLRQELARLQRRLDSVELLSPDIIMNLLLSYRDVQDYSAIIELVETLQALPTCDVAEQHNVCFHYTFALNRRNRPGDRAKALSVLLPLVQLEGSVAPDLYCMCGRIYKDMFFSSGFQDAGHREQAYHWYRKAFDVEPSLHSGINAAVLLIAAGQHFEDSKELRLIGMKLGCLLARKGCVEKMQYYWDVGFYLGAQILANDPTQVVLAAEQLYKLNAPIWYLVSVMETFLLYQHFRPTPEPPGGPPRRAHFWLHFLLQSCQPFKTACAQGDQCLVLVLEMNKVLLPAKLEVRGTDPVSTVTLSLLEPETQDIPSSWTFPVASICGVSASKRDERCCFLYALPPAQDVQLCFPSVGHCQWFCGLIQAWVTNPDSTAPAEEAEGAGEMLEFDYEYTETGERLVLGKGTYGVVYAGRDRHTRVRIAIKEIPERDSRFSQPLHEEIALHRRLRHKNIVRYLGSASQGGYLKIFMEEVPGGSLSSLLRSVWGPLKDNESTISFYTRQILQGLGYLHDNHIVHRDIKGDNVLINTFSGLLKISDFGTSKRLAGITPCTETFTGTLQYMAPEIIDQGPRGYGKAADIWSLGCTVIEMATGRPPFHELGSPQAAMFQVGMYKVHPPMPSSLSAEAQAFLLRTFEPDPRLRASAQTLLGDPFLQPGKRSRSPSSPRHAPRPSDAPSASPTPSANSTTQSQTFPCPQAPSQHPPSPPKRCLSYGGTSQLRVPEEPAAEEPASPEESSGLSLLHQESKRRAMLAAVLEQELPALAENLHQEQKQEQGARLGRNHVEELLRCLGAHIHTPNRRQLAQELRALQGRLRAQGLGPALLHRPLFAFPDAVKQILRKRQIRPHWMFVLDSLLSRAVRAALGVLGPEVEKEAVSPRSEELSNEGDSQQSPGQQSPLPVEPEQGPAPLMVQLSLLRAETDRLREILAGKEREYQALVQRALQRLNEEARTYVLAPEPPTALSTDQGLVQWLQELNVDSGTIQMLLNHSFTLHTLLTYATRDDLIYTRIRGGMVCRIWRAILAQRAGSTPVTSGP
Recorded Endpoint: IC50

Solved entries:
INSERT INTO measurements (molecule, result_value) VALUES
  ('CC(C)n1cnnc1-c1cccc(N2CCN(c3ccc(N4CCOCC4)cc3)C2=O)n1', '> 10 µM'),
  ('CNC(=O)C1CCN(c2ccc(N3CCN(c4cccc(-c5nncn5C(C)C)n4)C3=O)cc2)CC1', '8.5 µM');

query: What value of measured IC50 is listed for `CC(C)n1cnnc1-c1cccc(N2CCN(c3ccc(N4CC(C#N)C4)cc3)C2=O)n1` ?
result: > 10 µM
